Measured RatioGI50 accompanies every entry in the list below.
Experiment: Selectivity index, ratio of GI50 for human CCD-18Co cells to GI50 for human COLO205 cells
attribute.measured: RatioGI50

{"chem.smiles": "CC(C)(C)OC(=O)N1C/C(=C\\c2cccc(O)c2)C(=O)/C(=C/c2cccc(O)c2)C1", "numeric.result": 0.5}
{"chem.smiles": "CC(C)(C)OC(=O)N1C/C(=C\\c2ccccc2)C(=O)/C(=C/c2ccccc2)C1", "numeric.result": 0.4}
{"chem.smiles": "CC(C)(C)OC(=O)N1C/C(=C\\c2ccc(O)cc2)C(=O)/C(=C/c2ccc(O)cc2)C1", "numeric.result": 0.3}
{"chem.smiles": "COc1ccc(/C=C2\\CN(C(=O)OC(C)(C)C)C/C(=C\\c3ccc(OC)cc3OC)C2=O)c(OC)c1", "numeric.result": 1.4}
{"chem.smiles": "COc1cc(/C=C2\\CN(C(=O)OC(C)(C)C)C/C(=C\\c3ccc(O)c(OC)c3)C2=O)ccc1O", "numeric.result": 0.7}
{"chem.smiles": "COc1cc(/C=C/C(=O)/C=C/c2ccc(O)c(OC)c2)ccc1O", "numeric.result": 0.8}
{"chem.smiles": "CC(C)(C)OC(=O)N1C/C(=C\\c2ccccc2C(F)(F)F)C(=O)/C(=C/c2ccccc2C(F)(F)F)C1", "numeric.result": 1.7}
